SYSTEM_UNDER_TEST: CDK11A/Cyclin L2 (Homo sapiens, UniProt Q9UQ88)
Sequence (Q9UQ88 1-783): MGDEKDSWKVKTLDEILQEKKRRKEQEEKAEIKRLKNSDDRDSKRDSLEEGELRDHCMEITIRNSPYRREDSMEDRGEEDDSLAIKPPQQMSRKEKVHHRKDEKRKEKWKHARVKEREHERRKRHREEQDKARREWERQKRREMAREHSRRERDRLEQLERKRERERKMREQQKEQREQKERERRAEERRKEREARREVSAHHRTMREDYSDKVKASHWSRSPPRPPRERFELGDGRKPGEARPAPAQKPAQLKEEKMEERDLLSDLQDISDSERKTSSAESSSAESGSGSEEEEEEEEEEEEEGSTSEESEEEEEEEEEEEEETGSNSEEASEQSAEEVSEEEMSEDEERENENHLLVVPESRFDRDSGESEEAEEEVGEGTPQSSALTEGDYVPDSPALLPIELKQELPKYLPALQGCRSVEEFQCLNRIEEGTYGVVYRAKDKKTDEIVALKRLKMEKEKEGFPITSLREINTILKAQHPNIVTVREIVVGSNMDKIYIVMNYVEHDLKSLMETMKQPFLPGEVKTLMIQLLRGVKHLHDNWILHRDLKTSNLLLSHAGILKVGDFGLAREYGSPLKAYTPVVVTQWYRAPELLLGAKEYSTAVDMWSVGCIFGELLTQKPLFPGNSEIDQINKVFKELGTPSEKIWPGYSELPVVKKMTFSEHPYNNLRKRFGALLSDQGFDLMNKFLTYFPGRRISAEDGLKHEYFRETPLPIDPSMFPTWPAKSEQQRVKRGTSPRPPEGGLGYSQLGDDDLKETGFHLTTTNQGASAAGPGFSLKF
TEST: NanoBRET live-cell target engagement, CDK11A-NanoLuc/Cyclin L2 in HEK-293
Type: binding
TEST_SETTINGS: 10µM; average of experiments; read-out: CDK11a/L2 Inhibition at 10µM (%)
TEST_READOUT: inhibition at 10 µM (%)

Below, each entry is followed by its recorded inhibition at 10 µM result.
MOLECULE: CN1CCN(c2ccc(Nc3ncc4cc5n(c4n3)C3(CCCCC3)CNC5=O)nc2)CC1
UNITS_SYMBOL: %
inhibition at 10 µM: 6.5

MOLECULE: CC(C)CC(=O)Nc1[nH]nc2c1CN(C(=O)C1CCN(C)CC1)C2(C)C
UNITS_SYMBOL: %
inhibition at 10 µM: 50.1

MOLECULE: CC(C)[C@H](CO)Nc1nc(Nc2ccc(C(=O)O)c(Cl)c2)c2ncn(C(C)C)c2n1
UNITS_SYMBOL: %
inhibition at 10 µM: -4.5

MOLECULE: CN(C)C/C=C/C(=O)Nc1ccc(C(=O)N2CCC[C@@H](Nc3ncc(Cl)c(-c4c[nH]c5ccccc45)n3)C2)cc1
UNITS_SYMBOL: %
inhibition at 10 µM: 46.9

I = CN1C/C=C/CCOc2cccc(c2)-c2ccnc(n2)Nc2cccc(c2)C1
II = CN(C)C(=O)c1cc2cnc(Nc3ccc(N4CCNCC4)cn3)nc2n1C1CCCC1
Q: Form field 'greater inhibition at 10 µM' accepts I or II ; which applies? Output the label that corresponds to your choice.
A: I

These entries and their values trace back to paper PMC7265341.
